- System Tested: Trifunctional purine biosynthetic protein adenosine-3 (Mus musculus)
- Sequence (Q64737 whole entry): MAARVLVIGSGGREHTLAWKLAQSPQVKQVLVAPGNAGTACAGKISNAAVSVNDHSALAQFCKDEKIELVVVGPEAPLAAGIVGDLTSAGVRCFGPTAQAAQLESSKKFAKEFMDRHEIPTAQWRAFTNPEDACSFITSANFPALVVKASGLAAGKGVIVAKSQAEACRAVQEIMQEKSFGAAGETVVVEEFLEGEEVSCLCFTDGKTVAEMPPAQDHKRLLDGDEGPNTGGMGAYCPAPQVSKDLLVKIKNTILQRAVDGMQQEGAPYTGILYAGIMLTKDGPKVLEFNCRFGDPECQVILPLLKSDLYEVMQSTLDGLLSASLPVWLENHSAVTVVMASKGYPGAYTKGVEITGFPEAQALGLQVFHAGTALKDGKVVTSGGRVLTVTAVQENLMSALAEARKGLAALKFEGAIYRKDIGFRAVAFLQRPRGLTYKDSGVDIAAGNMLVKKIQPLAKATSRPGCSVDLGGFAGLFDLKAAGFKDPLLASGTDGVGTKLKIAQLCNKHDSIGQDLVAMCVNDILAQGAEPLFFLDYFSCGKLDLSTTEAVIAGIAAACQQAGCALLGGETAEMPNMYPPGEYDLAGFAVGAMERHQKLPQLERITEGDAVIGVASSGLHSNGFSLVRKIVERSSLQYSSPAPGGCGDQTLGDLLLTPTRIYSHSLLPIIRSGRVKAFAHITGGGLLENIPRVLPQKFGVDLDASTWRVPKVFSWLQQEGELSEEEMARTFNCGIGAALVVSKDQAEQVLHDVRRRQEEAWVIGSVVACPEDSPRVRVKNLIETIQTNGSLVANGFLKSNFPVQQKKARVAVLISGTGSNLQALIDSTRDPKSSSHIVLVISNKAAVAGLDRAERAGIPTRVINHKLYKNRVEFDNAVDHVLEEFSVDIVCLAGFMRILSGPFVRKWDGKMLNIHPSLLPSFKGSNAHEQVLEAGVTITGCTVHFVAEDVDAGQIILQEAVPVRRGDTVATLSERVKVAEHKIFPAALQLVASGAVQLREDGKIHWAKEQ
- Experiment Description: Inhibition of mouse recombinant GARFTase
Reported IC50 by item:

| Entry Smiles | Meas Value |
| --- | --- |
| Nc1nc2sc(CCCc3ccc(C(=O)N[C@@H](CCC(=O)O)C(=O)O)cc3)cc2c(=O)[nH]1 | 8.52 µM |

Attention now shifts to the item below.
Measured IC50, Nc1nc2sc(CCc3ccc(C(=O)N[C@@H](CCC(=O)O)C(=O)O)cc3)cc2c(=O)[nH]1 : > 20 µM

Reference source: ChEMBL document CHEMBL1138482
